Data provenance is PubChem BioAssay (Tox21).

# tested_target: Aryl hydrocarbon receptor (Homo sapiens)
# measurement_description: qHTS assay to identify small molecule that activate the aryl hydrocarbon receptor (AhR) signaling pathway (AID 743085); note: nearly all actives have a fitted effect of over 15% in size;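 for activation: HG2L7.5c1 human HepG2 liver cells with stably integrated DRE-driven firefly reporter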
# particulars: HepG2 AhR-luc (HG2L7.5c1), luciferase, 24 h; series mostly up to 70.3 µM
Records with an inconclusive call do not appear. The source made the active and inactive calls. Calls come from the whole dose curve; as a rule, active = well fitted activation curve with a large enough effect in the repeat runs; inconclusive = weak or mixed curves; inactive = no such curve, though single readings can be large or run the other way.
Bench note: report the call from active, inactive

1) COc1ccnc(CS(=O)c2nc3cc(OC(F)F)ccc3[nH]2)c1OC (configuration not stated)
active

Ask: Name the outcome recorded for `CCN(Cc1ccccc1)c1ccccc1` in the assay.
Result: inactive

Ask: Name the outcome recorded for `N[C@@H](CCC(=O)O)C(=O)O` in the assay.
Result: inactive

Ask: Name the outcome recorded for CCOCC(C)O (configuration not stated) in the assay.
Result: inactive

Ask: Name the outcome recorded for `CCN(CC#N)c1cccc(C)c1` in the assay.
Result: inactive

Ask: Name the outcome recorded for `CNCCO` in the assay.
Result: inactive

Ask: Name the outcome recorded for `Nc1ccncc1N` in the assay.
Result: active

Ask: Name the outcome recorded for `O=C1c2ccccc2C(=O)c2cc(O)ccc21` in the assay.
Result: active

Ask: Name the outcome recorded for `Cc1cccc(C)c1NC(=O)CC12CCCN1CCC2` in the assay.
Result: inactive

Ask: Name the outcome recorded for `CC(C)(C)C(=O)Oc1ccc(S(=O)(=O)Nc2ccccc2C(=O)NCC(=O)O)cc1` in the assay.
Result: active

Ask: Name the outcome recorded for `CCCCOCCOC(=O)COc1cc(Cl)c(Cl)cc1Cl` in the assay.
Result: inactive

Ask: Name the outcome recorded for NC(CCC(=O)O)C(=O)O (configuration not stated) in the assay.
Result: inactive
